Assay: Single-dose plasma pharmacokinetics of MK-8507 (suspension, study 1; tablet, study 2)
Assay type: in vivo
Conditions: human, po, 400 mg, single oral dose 400 mg, tablet, fasted, n=6, read-out: Tmax (median [min, max])
measured.property: Tmax (h)

INSERT INTO results (compound_string, recorded_result) VALUES
  ('N#Cc1cc(Cl)cc(Oc2c(C(F)(F)F)ncn(Cc3cc(C(F)(F)F)c(=O)[nH]n3)c2=O)c1', 7);

###

Experiment: Single-dose plasma pharmacokinetics of MK-8507 (suspension, study 1; tablet, study 2)
Assay type: in vivo
Details: human, po, 30 mg, single oral dose 30 mg, suspension, fasted, n=6, read-out: Cmax (geometric mean [95% CI])
measured.property: Cmax (nM)

INSERT INTO assay_data (compound_string, measured_property, recorded_result) VALUES
  ('N#Cc1cc(Cl)cc(Oc2c(C(F)(F)F)ncn(Cc3cc(C(F)(F)F)c(=O)[nH]n3)c2=O)c1', 'Cmax', 790);

###

Test: Single-dose plasma pharmacokinetics of MK-8507 (suspension, study 1; tablet, study 2)
Assay type: in vivo
Conditions: human, po, 200 mg, single oral dose 200 mg, suspension, fasted, n=6, read-out: Tmax (median [min, max])
measured.property: Tmax (h)

INSERT INTO assay_data (compound_string, measured_property, recorded_result) VALUES
  ('N#Cc1cc(Cl)cc(Oc2c(C(F)(F)F)ncn(Cc3cc(C(F)(F)F)c(=O)[nH]n3)c2=O)c1', 'Tmax', 2.02);

###

Test: Multiple-dose (once weekly for 3 weeks) plasma pharmacokinetics of MK-8507 tablet
Format: in vivo, human
Conditions: human, plasma, oral, 100 mg, 100 mg tablet once weekly, wk 3, n=6; read-out: Apparent terminal t½ (geometric mean [%GVC]) (converted)
measured.property: half-life (h)

INSERT INTO results (compound, unit_string, recorded_result) VALUES
  ('N#Cc1cc(Cl)cc(Oc2c(C(F)(F)F)ncn(Cc3cc(C(F)(F)F)c(=O)[nH]n3)c2=O)c1 [MK-8507]', 'h', 66.7);

###

Assay: Single-dose plasma pharmacokinetics of MK-8507 (suspension, study 1; tablet, study 2)
Assay type: in vivo
Settings: human, po, 800 mg, single oral dose 800 mg, tablet, fasted, n=6, read-out: Tmax (median [min, max])
measured.property: Tmax (h)

INSERT INTO measurements (molecule, measured_property, recorded_result) VALUES
  ('N#Cc1cc(Cl)cc(Oc2c(C(F)(F)F)ncn(Cc3cc(C(F)(F)F)c(=O)[nH]n3)c2=O)c1 [MK-8507]', 'Tmax', 4);

###

Experiment: Multiple-dose (once weekly for 3 weeks) plasma pharmacokinetics of MK-8507 tablet
Type: in vivo, human
Settings: human, plasma, oral, 400 mg, 400 mg tablet once weekly, wk 3, n=6; read-out: Apparent terminal t½ (geometric mean [%GVC]) (converted)
measured.property: half-life (h)

INSERT INTO results (compound, unit_string, recorded_result) VALUES
  ('N#Cc1cc(Cl)cc(Oc2c(C(F)(F)F)ncn(Cc3cc(C(F)(F)F)c(=O)[nH]n3)c2=O)c1 [MK-8507]', 'h', 73.1);

###

Test: Single-dose plasma pharmacokinetics of MK-8507 (suspension, study 1; tablet, study 2)
Type: in vivo
Conditions: human, po, 400 mg, single oral dose 400 mg, suspension, fasted, n=6, read-out: AUC0–168 (geometric mean [95% CI])
measured.property: AUC(0-t) (µM·h)

INSERT INTO measurements (compound_string, recorded_result) VALUES
  ('N#Cc1cc(Cl)cc(Oc2c(C(F)(F)F)ncn(Cc3cc(C(F)(F)F)c(=O)[nH]n3)c2=O)c1', 619);

Data provenance is paper PMC8597757.
